Test system: LRRK2
Conditions: concentration: 1 μM, replicates: in singlicate; n = 1;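 also: KINOMEscan kinase panel screen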
result_type: %Inh (%)
Enter your answer as a number in %; do not include the unit.

Challenge: Determine its reported %Inh: `Cc1c(Cn2c(C)c(C)n3c(=O)cc(N4CCOCC4)nc23)cccc1C(F)(F)F`
Response given: 0

Challenge: Identify %Inh associated with the compound `COc1ccc(Nc2nccc(NCCNC(=O)Nc3cc(C)ccc3C)n2)cc1`
Response given: 23

Challenge: Identify %Inh associated with the compound `Fc1ccc(-c2nc[nH]c2-c2ccncc2)cc1`
Response given: 0

Challenge: Note down %Inh recorded for `FC(F)(F)c1ccccc1-c1cc(-c2c[nH]nc2-c2ccccn2)ccn1`
Response given: 1

Challenge: For the compound `CNC(=O)c1ccc(C)c(-n2c(C)cc(OCc3ccc(F)cc3F)c(Br)c2=O)c1` , report %Inh.
Response given: 0

----------
Give %Inh for every item shown.
Tested on: RPS6KA4(Kin.Dom.2-C-terminal)
Settings: concentration: 1 μM, replicates: in singlicate; n = 1
Use % as the unit, but write only the number.

Challenge: # return recorded %Inh for input `CCCCc1nn2ncccc2c1-c1ccnc(NC2CC2)n1`
Response given: 0

Challenge: Look up and state reported %Inh for `Cc1c(Cn2c(C)c(C)n3c(=O)cc(N4CCOCC4)nc23)cccc1C(F)(F)F`
Response given: 0

Challenge: Indicate its recorded %Inh; the compound in question is `CC(C)c1ccc(O)cc1Nc1ccnc2ccc(C(F)(F)F)cc12`
Response given: 0

Challenge: Tell us which %Inh value is on record for `c1ccc(-c2ccnc3[nH]ccc23)cc1`
Response given: 8

Challenge: Given COc1cccc(CNC(=O)NC2CCN(c3ccnc(Nc4ccc(F)cc4)n3)C2)c1 (stereo not drawn) , respond with its %Inh.
Response given: 0

Challenge: Tell me measured %Inh for `CN1c2ccc(-c3ccc(C(N)=O)cc3)cc2-c2[nH]ncc2S1(=O)=O` please.
Response given: 26

Challenge: Identify %Inh associated with the compound `CNC(=O)c1ccc(C)c(-n2c(C)cc(OCc3ccc(F)cc3F)c(Br)c2=O)c1`
Response given: 0

Challenge: Assign %Inh to the following record: `O=C1NC(=O)C(c2ccc(Cl)cc2)=C1Nc1ccc(O)cc1`
Response given: 0

Challenge: Note %Inh for the compound shown: `CNCc1ccc2nc(NC(=O)c3ccc(C(C)(C)C)cc3)cn2c1`
Response given: 9

----------
System: ITK
Details: concentration: 1 μM, replicates: in singlicate; n = 1
Give %Inh for every item shown.
Hi! Could you send only the number? It should be in %, unit omitted.

Challenge: Please report %Inh for the following compound: `Nc1ncnc2occ(-c3ccc4c(c3)CCN4C(=O)Cc3cc(F)ccc3F)c12`
Response given: 0

Challenge: Tell me its %Inh given `Cc1ccccc1-c1cc(-c2c[nH]nc2-c2ccccn2)ccn1` as the entry.
Response given: 12

Challenge: Identify %Inh associated with the compound `FC(F)(F)c1ccccc1-c1cc(-c2c[nH]nc2-c2ccccn2)ccn1`
Response given: 8

Challenge: Look up %Inh of `Cc1nccc(-c2c(-c3ccc(F)cc3)ncn2CCCN2CCOCC2)n1.Cl` and report it.
Response given: 24

Challenge: Dear colleague, please send me the reported %Inh for `COc1cc2ncnc(Nc3cccc(Br)c3)c2cc1OC.Cl` when you can.
Response given: 0

Challenge: Please report %Inh for the following compound: `CN1c2ccc(-c3ccc(C(N)=O)cc3)cc2-c2[nH]ncc2S1(=O)=O`
Response given: 0

Challenge: Find the measured %Inh of `CC(C)c1cc(-c2ccc3c(N)n[nH]c3c2)nc(N)n1` and report it.
Response given: 11

Challenge: Please report the measured %Inh for `CNc1nc(-c2ccc3c(N)n[nH]c3c2)cc(N2C[C@@H](C(=O)Nc3ccccc3)CC[C@H]2C)n1`
Response given: 12

Challenge: Identify %Inh associated with the compound `O=C1NC(=O)C(c2ccc(Cl)cc2)=C1Nc1cccc(Cl)c1`
Response given: 5

Attribution: paper PMC5540273
